Catalogue of compounds with associated composite z-score
Protocol: small-molecule microarray binders of probe aShh, primary screen, biochemical, biotinylated probe, 635/667 nm fluorescence (AID 1114);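 further: probe is biotin-labelled aShh protein from a stem cell growth factor screen; measures binding of labelled protein to compounds printed on the slide; score merges feature fluorescence at 667 nm with signal-to-noise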
Stated conditions: higher = more signal

Compound | composite z-score
CCOC(=O)C1=CC[C@@H](c2ccccc2)N(S(=O)(=O)c2ccc(C)cc2)[C@H]1C=Cc1ccccc1 | -0.13
COC(=O)[C@@]1(Cc2ccccc2CN=[N+]=[N-])N=C(c2ccc(OCCCO)cc2)O[C@H]1c1ccccc1CN=[N+]=[N-] | -0.156
CCCCCCCCCCC(O)C1C=CC2C(=O)N(c3ccccc3)C(=O)C2N1Nc1ccccc1F (stereo unspecified) | 0.246
C=C(CCCC)C(=O)CC[C@@H](OC(=O)c1cccnc1)c1ccc(OCCO)cc1 | -0.243
CCCCNC(=O)c1ccc(C#C[Si](C(C)C)(C(C)C)C(C)C)c(OC(C)=O)c1 | -0.2
COc1ccc(C(O)C2C=CC3C(=O)N(c4ccccc4)C(=O)C3N2Nc2ccccc2)cc1 (stereo unspecified) | -0.0243
COc1cc2c(cc1O)C(c1ccc(CN3CCCC3)cc1)N(C)CC2 (stereo unspecified) | -0.359
COCCCNC(=O)[C@@]1(Sc2ccc(C)cc2)CC(=O)N(Cc2ccccc2Cl)[C@@H]1c1ccc(CO)cc1I | 0.0115
C[C@]1(C(=O)NCCN2CCOCC2)c2ccccc2C(=O)N(Cc2cc(F)cc(C(F)(F)F)c2)[C@H]1c1ccc(CO)cc1 | -0.0222
[N-]=[N+]=Nc1ccccc1C[C@]1(C(=O)O)N=C(c2ccc(OCCCO)cc2)O[C@H]1c1ccccc1N=[N+]=[N-] | -0.0263
NC(=O)[C@@H]1[C@H]2C(=O)O[C@H](c3ccccc3)[C@H](c3ccccc3)N2[C@H](c2ccc(OCCO)cc2)[C@@]12C(=O)Nc1ccc(C#CCCO)cc12 | 0.166
[N-]=[N+]=NCc1ccccc1[C@H]1OC(c2ccc(OCCCO)cc2)=N[C@@]1(CCS(=O)(=O)c1ccccc1)C(=O)NCc1ccccc1 | 0.14
COc1ccc(CCNC(=O)[C@@]2(Cc3ccccc3I)c3ccccc3C(=O)N(Cc3ccccc3Cl)[C@H]2c2ccc(CO)cc2)cc1 | 0.235
C=C/C=C/[C@@H]1C(=C)CN([C@@H](Cc2ccccc2)C(=O)OC)[C@H]1[C@@H](O)Cc1ccccc1 | -0.138
CN(C)C(=O)[C@@]1(Cc2ccccc2)COC(c2ccc(OCCCO)cc2)=N1 | 0.0526
COCCCNC(=O)[C@@]1(Sc2ccc(C)cc2)CC(=O)N(C(C)C)[C@@H]1c1ccc(CO)cc1I | -0.291
Cc1ccccc1C(O)C1C=CC2C(=O)N(c3ccccc3)C(=O)C2N1Nc1ccc([N+](=O)[O-])cc1 (stereo unspecified) | 0.0684
C[C@@]12COC[C@]13C=C(Br)[C@H](C2)[C@@]1(CO1)C3=O | -0.214
CC(C)CNC(=O)[C@@H]1c2ccccc2C(=O)N(C2CCCCC2)[C@H]1c1ccc(CO)cc1 | -0.153
COc1cc(NN2C(C(O)c3cc(OC)c(OC)c(OC)c3)C=CC3C(=O)N(c4ccccc4)C(=O)C32)cc(OC)c1OC (stereo unspecified) | -0.0193
O=C1C[C@@](C(=O)NCc2ccccc2)(c2ccc([N+](=O)[O-])cc2)[C@@H](c2ccc(CO)cc2I)N1CC12CC3CC(CC(C3)C1)C2 | -0.152
C=C(CCCC)/C(=C/C[C@H](OC(C)=O)c1ccc(OCCO)cc1)c1cc(C(=O)OC)ccc1OC | -0.221
COc1ccc(C(O)C2C=CC3C(=O)N(c4ccccc4)C(=O)C3N2Nc2ccccc2F)cc1 (stereo unspecified) | 0.0062
C=C(/C(=C/C[C@H](OC(=O)c1ccncc1)c1ccccc1OCCO)c1cnc2ccccc2c1)C(C)C | 0.172
O=C(CS)NCCCCCCNC(=O)[C@@H]1C[C@@H]2C(=O)NCC(=O)N2[C@@H]1c1ccc(O)cc1 | -0.0035
COCCOC(=O)N1C(=O)[C@@]2(c3cc(C#Cc4ccc(OC)cc4)ccc31)[C@H](c1ccc(OCCO)cc1)N1[C@H](c3ccccc3)[C@H](c3ccccc3)OC(=O)[C@H]1[C@@H]2C(=O)Nc1nc2ccccc2s1 | 1.52

====

Catalogue of molecules with associated composite z-score
Experimental target: Left-right determination factor 2 (Homo sapiens) (UniProt O00292)
Sequence (O00292 whole entry, looked up): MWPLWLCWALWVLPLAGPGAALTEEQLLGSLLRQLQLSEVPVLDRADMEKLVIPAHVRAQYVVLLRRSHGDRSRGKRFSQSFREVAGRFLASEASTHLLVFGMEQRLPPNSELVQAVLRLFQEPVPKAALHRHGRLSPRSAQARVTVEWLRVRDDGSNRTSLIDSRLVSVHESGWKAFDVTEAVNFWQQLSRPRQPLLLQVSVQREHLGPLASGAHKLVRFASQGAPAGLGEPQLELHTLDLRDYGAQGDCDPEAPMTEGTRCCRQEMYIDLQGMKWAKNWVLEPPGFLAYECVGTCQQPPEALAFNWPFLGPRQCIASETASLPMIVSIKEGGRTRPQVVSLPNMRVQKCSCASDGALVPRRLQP
Protocol: LEFTY2 binders on small-molecule microarrays, primary screen, biochemical, small-molecule microarray, 635 nm fluorescence scan (AID 1110)
Stated conditions: LEFTY2 binding, higher = more signal
Measured property: composite z-score

Molecule | Measured property | Reported value
Cc1cccc([C@H]2C[C@H]3C(Br)=C[C@@H]2C(=O)[C@]32CO2)c1 | composite z-score | 0.174
COC(=O)[C@@]1(Cc2ccc(F)cc2)[C@H]2c3cc(C(=O)N4CCCC4)n(CC4CC4)c3C[C@H]2CN1C(=O)c1ccccc1 | composite z-score | 1.29
CC1(C)C(=O)C(c2ccccc2)=C2CN3C(=O)N(CCc4ccccc4)C(=O)C3(Cc3ccc(F)cc3)C=C21 (configuration not stated) | composite z-score | -1.24
CC(C)[C@H]1NC(=O)[C@@]23C(=O)N[C@@H](Cc4ccccc4)C2[C@H](C)[C@@]2(C)O[C@H]2C3/C=C/CCC/C=C/CNC(=O)[C@H](Cc2ccccc2)NC1=O (some centres not stated) | composite z-score | -0.0883
C=C(CCCC)C(=O)CC[C@H](OC(C)=O)c1ccc(OCCO)cc1 | composite z-score | -0.0558
O=C1[C@@]23C=C(Br)[C@H](C[C@@H]2COC3)[C@@]12CO2 | composite z-score | 0.531
CCOC(=O)C[C@H]1[C@H](OC(=O)c2ccc(-c3ccccc3)cc2)[C@@H](NC(=O)Cc2ccc(OC)cc2)c2cc(OCCCO)ccc2N1C(=O)Cc1ccc(OC)cc1 | composite z-score | -0.0069
O=C1C2C=CC(C(O)c3cccc(O)c3)N(Nc3ccccc3)C2C(=O)N1c1ccccc1 (configuration not stated) | composite z-score | -0.0995
[N-]=[N+]=NCc1ccccc1C[C@]1(C(=O)N2CCOCC2)COC(c2ccc(OCCCO)cc2)=N1 | composite z-score | -0.305
O=C1C2C=CC(C(O)c3ccc4c(c3)OCO4)N(Nc3ccccc3)C2C(=O)N1c1ccccc1 (configuration not stated) | composite z-score | -0.127
CCC(CC)C(O)C1C=CC2C(=O)N(c3ccccc3)C(=O)C2N1Nc1ccc([N+](=O)[O-])cc1 (configuration not stated) | composite z-score | -0.139
CCOC(=O)C1=CC[C@@H](c2ccccc2)N(S(=O)(=O)c2ccc(C)cc2)[C@H]1C=Cc1ccccc1 | composite z-score | -0.481
Cc1ccccc1C(O)C1C=CC2C(=O)N(c3ccccc3)C(=O)C2N1Nc1ccc([N+](=O)[O-])cc1 (configuration not stated) | composite z-score | 0.174
Cc1ccc(S[C@]2(C(=O)NCC(C)C)CC(=O)N(C3Cc4ccccc4C3)[C@@H]2c2ccc(CO)cc2I)cc1 | composite z-score | -1.2
COCCOC(=O)N1C(=O)[C@@]2(c3cc(C#CCCO)ccc31)[C@H](C(=O)N1CCCCCCC1)[C@H]1C(=O)O[C@H](c3ccccc3)[C@H](c3ccccc3)N1[C@@H]2c1ccccc1OCCO | composite z-score | 1.18
NC(=O)[C@H]1[C@@H]2C(=O)O[C@@H](c3ccccc3)[C@@H](c3ccccc3)N2[C@@H](c2ccc(O)cc2)[C@]12C(=O)Nc1ccc(C#CC3=CCCCC3)cc12 | composite z-score | -0.443
COC(=O)[C@@]1(Cc2ccc(F)cc2)[C@H]2c3cc(C(=O)N4CCCC4)n(C)c3C[C@H]2CN1C(=O)c1ccccc1 | composite z-score | -0.917
C=C[C@@H](OC)[C@H](OC(=O)Nc1ccc(OC)cc1)c1ccc(OC)c(O)c1 | composite z-score | -1.86
CN1C(=O)C2C=CC(C(O)c3ccc(I)cc3)N(Nc3ccccc3)C2C1=O (configuration not stated) | composite z-score | 0.136
C=C[C@@H](C)[C@H](O)c1ccc(OCCO)cc1 | composite z-score | -2.31
CC(C)C(=C=CC[C@H](O)c1cccc(OCCO)c1)CCO | composite z-score | -0.0916
CC(C)(C)OC(=O)CC[C@]12N=C(c3ccc(OCCCO)cc3)O[C@H]1c1ccccc1N(Cc1ccccc1)C2=O | composite z-score | 0.27
CCCCC(=C=CC[C@H](O)c1ccc(OCCO)cc1)C[C@H](O)COCc1ccccc1 | composite z-score | -0.233
O=C(O)[C@H]1C[C@H]2C(=O)N[C@@H](Cc3ccccc3)C(=O)N2[C@H]1c1cccc(OCCO)c1 | composite z-score | 0.978
CCOC(=O)C[C@H]1[C@H](OC(=O)c2ccc(C(=O)c3ccccc3)cc2)[C@@H](NC(=O)CC(C)C)c2cc(OCCCO)ccc2N1C(=O)Cc1ccc(OC)cc1 | composite z-score | 0.142
CC(CO)N1C(=O)[C@@H]2[C@H]3C(=O)OCC=C[C@H]3OC23C=CCN(c2ccc(Cl)cc2)C(=O)[C@@H]13 (some centres not stated) | composite z-score | -2.63
CCOC(=O)C1=C[C@@H](C(C)(C)C)N(S(=O)(=O)c2ccc(C)cc2)[C@H]1c1ccccc1 | composite z-score | 0.561
